- Tested on: Setaria faberi (SETFA)
- PROTOCOL_SUMMARY: Example A pre-emergence herbicidal activity, glasshouse pot test
- Format: in vivo
- ASSAY_CONDITIONS: 480 h, rate 250 g/ha, evaluated 20 days after spraying, read-out: Pre-emergence activity SETFA (100=total damage to plant; 0=no damage to plant)
1 (yes) means recorded pest or weed control at 250 g/ha is 60% or above; 0 (no) means it is below 60%.

// query Test whether the compound Cc1ccc(-c2ccc(C(F)(F)F)cc2)cc1C1=C(O)C(C)(C)OC(C)(C)C1=O [Compound A-10] records pest or weed control at 250 g/ha of 60% or higher.
// result 1 (yes)

// query Test whether the compound CCc1ccc(-c2ccc(Cl)c(Cl)c2)cc1C1=C(O)C(C)(C)OC(C)(C)C1=O [Compound A-42] records pest or weed control at 250 g/ha of 60% or higher.
// result 1 (yes)

// query Test whether the compound CCc1ccc(-c2ccc(Cl)c(C)c2)cc1C1=C(O)C(C)(C)OC(C)(C)C1=O [Compound A-44] records pest or weed control at 250 g/ha of 60% or higher.
// result 0 (no)

// query Test whether the compound Cc1ccc(-c2ccc(Cl)cc2)cc1C1=C(O)[C@@]2(C)CC[C@](C)(O2)C1=O [Compound A-40] records pest or weed control at 250 g/ha of 60% or higher.
// result 1 (yes)

// query Test whether the compound Cc1cc(-c2ccc(C)c(C3=C(O)C(C)(C)OC(C)(C)C3=O)c2)ccc1Cl [Compound A-53] records pest or weed control at 250 g/ha of 60% or higher.
// result 0 (no)

// query Test whether the compound Cc1ccc(-c2ccc(Cl)c(C(F)(F)F)c2)cc1C1=C(O)C(C)(C)OC(C)(C)C1=O [Compound A-52] records pest or weed control at 250 g/ha of 60% or higher.
// result 1 (yes)

// query Test whether the compound CCc1ccc(-c2ccc(Cl)cc2)cc1C1=C(O)C2(CCCC2)OCC1=O [Compound A-36] records pest or weed control at 250 g/ha of 60% or higher.
// result 1 (yes)

// query Test whether the compound CCc1ccc(-c2ccc(Cl)cc2)cc1C1=C(O)C(C)(C)[S+]([O-])C(C)(C)C1=O (stereo not drawn) [Compound C-2] records pest or weed control at 250 g/ha of 60% or higher.
// result 1 (yes)

// query Test whether the compound Cc1ccc(-c2ccc(Cl)cc2C)cc1C1=C(O)C(C)(C)OC(C)(C)C1=O [Compound A-51] records pest or weed control at 250 g/ha of 60% or higher.
// result 0 (no)

// query Test whether the compound CCc1ccc(-c2ccc(Cl)c(F)c2)cc1C1=C(O)C(C)(C)OC(C)(C)C1=O [Compound A-43] records pest or weed control at 250 g/ha of 60% or higher.
// result 1 (yes)

// query Test whether the compound CCc1ccc(-c2ccc(Cl)cc2)cc1C1=C(O)C(C)(C)OC(C)(CC)C1=O (single isomer, unassigned) [Compound A-34] records pest or weed control at 250 g/ha of 60% or higher.
// result 1 (yes)

// query Test whether the compound CCc1ccc(-c2ccc(Cl)cc2)cc1C1=C(O)C(C)(CC)OC(C)(CC)C1=O (stereo not drawn) [Compound A-35] records pest or weed control at 250 g/ha of 60% or higher.
// result 1 (yes)

// query Test whether the compound CCc1ccc(-c2ccc(F)cc2)cc1C1=C(O)[C@@]2(C)CC[C@H](O2)C1=O [Compound A-38] records pest or weed control at 250 g/ha of 60% or higher.
// result 1 (yes)

// query Test whether the compound CCc1ccc(-c2ccc(Cl)cc2Cl)cc1C1=C(O)C(C)(C)OC(C)(C)C1=O [Compound A-45] records pest or weed control at 250 g/ha of 60% or higher.
// result 1 (yes)

// query Test whether the compound Cc1ccc(-c2ccc(Cl)cc2Cl)cc1C1=C(O)C(C)(C)OC(C)(C)C1=O [Compound A-49] records pest or weed control at 250 g/ha of 60% or higher.
// result 0 (no)

###

- Tested on: Avena fatua (AVEFA)
- PROTOCOL_SUMMARY: Example B pre-emergence herbicidal activity, glasshouse pot test
- Assay type: in vivo
- ASSAY_CONDITIONS: 312 h, rate 1000 g/ha, evaluated after 13 days, read-out: Pre-emergence activity AVEFA (100=total damage to plant; 0=no damage to plant)
Satisfied means recorded pest or weed control at 1000 g/ha is 20% or above; Not satisfied means it is below 20%.

Past entries and their recorded results:
> print(dat)
                                   compound  classification
1  CCc1ccc(-c2ccc(Cl)cc2)cc1C1=C(OC(=O)OC)C(C)(C)OC(C)(C)C1=O [Compound D-16]   Not satisfied
2  Cc1ccc(-c2cccc(C(F)(F)F)c2)cc1C1=C(O)C(C)(C)OC(C)(C)C1=O [Compound A-15]       Satisfied
3  Cc1ccc(-c2ccc(C(C)(C)C)cc2)cc1C1=C(O)C(C)(C)OC(C)(C)C1=O [Compound A-21]       Satisfied
4  Cc1ccc(-c2cc(F)cc(F)c2)cc1C1=C(O)C(C)(C)OC(C)(C)C1=O [Compound A-25]       Satisfied
5  Cc1ccc(-c2ccc(Cl)nc2Cl)cc1C1=C(O)C(C)(C)OC(C)(C)C1=O [Compound A-58]       Satisfied

// query Test whether the compound CCc1ccc(-c2ccc(Cl)cc2)cc1C1=C(OC(=O)C(C)C)C(C)(C)OC(C)(C)C1=O [Compound D-9] records pest or weed control at 1000 g/ha of 20% or higher.
// result Not satisfied

// query Test whether the compound CCc1ccc(-c2ccc(Cl)cc2)cc1C1=C(OC(=O)C(C)(C)OC)C(C)(C)OC(C)(C)C1=O [Compound D-20] records pest or weed control at 1000 g/ha of 20% or higher.
// result Not satisfied

// query Test whether the compound CCc1ccc(-c2ccc(Cl)cc2)cc1C1=C(OC(=O)COC)C(C)(C)OC(C)(C)C1=O [Compound D-12] records pest or weed control at 1000 g/ha of 20% or higher.
// result Satisfied

###

- System: Avena fatua (AVEFA)
- PROTOCOL_SUMMARY: Example A pre-emergence herbicidal activity, glasshouse pot test
- Format: in vivo
- ASSAY_CONDITIONS: 480 h, rate 500 g/ha, evaluated 20 days after spraying, read-out: Pre-emergence activity AVEFA (100=total damage to plant; 0=no damage to plant)
# pest or weed control at 500 g/ha per record follows
Field: value (include unit after the number)

Past entries and their recorded results:
> print(dat)
                                   molecule         assay.target                  measurement.kind  measured.result
1  CCc1ccc(-c2ccc(Cl)cc2)cc1C1=C(O)C(C)(C)C(=O)C(C)(C)C1=O  Avena fatua (AVEFA)  pest or weed control at 500 g/ha              60%
2   CCc1ccc(-c2ccc(Cl)cc2)cc1C1=C(O)COCC1=O  Avena fatua (AVEFA)  pest or weed control at 500 g/ha              50%
3  Cc1ccc(-c2ccc(Cl)cc2)cc1C1=C(O)COC(C)(C)C1=O (single isomer, unassigned)  Avena fatua (AVEFA)  pest or weed control at 500 g/ha              10%
4  Cc1ccc(-c2ccc(Cl)cc2)cc1C1=C(O)C(C)(C)OC(C)(C)C1=O  Avena fatua (AVEFA)  pest or weed control at 500 g/ha              50%

# input for lookup
// query Output pest or weed control at 500 g/ha of CCc1ccc(-c2ccc(Cl)cc2)cc1C1=C(O)C(C)(C)SC(C)(C)C1=O
// result 20%

###

- System: Digitaria sanguinalis (DIGSA)
- PROTOCOL_SUMMARY: Example A pre-emergence herbicidal activity, glasshouse pot test
- Type: in vivo
- ASSAY_CONDITIONS: 480 h, rate 250 g/ha, evaluated 20 days after spraying, read-out: Pre-emergence activity DIGSA (100=total damage to plant; 0=no damage to plant)
Criterion met means recorded pest or weed control at 250 g/ha is 80% or above; Criterion not met means it is below 80%.

Past entries and their recorded results:
> print(dat)
                                   molecule     classification
1  Cc1ccc(-c2ccc(Cl)c(Cl)c2)cc1C1=C(O)C(C)(C)OC(C)(C)C1=O [Compound A-48]  Criterion not met
2  Cc1ccc(-c2ccc(Cl)c(C(F)(F)F)c2)cc1C1=C(O)C(C)(C)OC(C)(C)C1=O [Compound A-52]      Criterion met
3  CCc1ccc(-c2ccc(Cl)c(F)c2)cc1C1=C(O)C(C)(C)OC(C)(C)C1=O [Compound A-43]      Criterion met
4  CCc1ccc(-c2ccc(Cl)cc2)cc1C1=C(O)C(C)(C)OC(C)(CC)C1=O (single isomer, unassigned) [Compound A-34]      Criterion met
5  CCc1ccc(-c2ccc(Cl)c(C)c2)cc1C1=C(O)C(C)(C)OC(C)(C)C1=O [Compound A-44]      Criterion met
6  CCc1ccc(-c2ccc(Cl)cc2)cc1C1=C(O)C2(CCCC2)OCC1=O [Compound A-36]      Criterion met

// query Test whether the molecule CCc1ccc(-c2ccc(Cl)cc2Cl)cc1C1=C(O)C(C)(C)OC(C)(C)C1=O [Compound A-45] records pest or weed control at 250 g/ha of 80% or higher.
// result Criterion met

// query Test whether the molecule Cc1ccc(-c2ccc(Cl)c(F)c2)cc1C1=C(O)C(C)(C)OC(C)(C)C1=O [Compound A-47] records pest or weed control at 250 g/ha of 80% or higher.
// result Criterion not met

// query Test whether the molecule Cc1ccc(-c2ccc(Cl)cc2Cl)cc1C1=C(O)C(C)(C)OC(C)(C)C1=O [Compound A-49] records pest or weed control at 250 g/ha of 80% or higher.
// result Criterion not met

// query Test whether the molecule CCc1ccc(-c2ccc(Cl)cc2)cc1C1=C(O)C(C)(C)[S+]([O-])C(C)(C)C1=O (stereo not drawn) [Compound C-2] records pest or weed control at 250 g/ha of 80% or higher.
// result Criterion met
